Reference for the values: the SangsterLogP compilation

measurementLabel: logP
Quick one: just the number, no unit, thanks!

## Input May I ask what logP has been recorded for "Cc1c(F)c(F)c(COC(=O)[C@H]2[C@@H](/C=C(\Cl)C(F)(F)F)C2(C)C)c(F)c1F" ?
## Output 6.5

## Input May I ask what logP has been recorded for "CCOP(=S)(OCC)SCSP(=S)(OCC)OCC" ?
## Output 4

## Input May I ask what logP has been recorded for Cc1ccc(C(=O)O)c(C2=NC(C)(C(C)C)C(=O)N2)c1 (stereo not drawn) ?
## Output 1.54

* * *

measurementLabel: logP
Quick one: just the number, no unit, thanks!

## Input May I ask what logP has been recorded for CO[C@H]1CCC[C@H]2C1=C(C(=O)OC(C)OC(=O)OC1CCCCC1)N1C(=O)[C@H]([C@@H](C)O)[C@@H]21 (some centres not stated) ?
## Output 3

## Input May I ask what logP has been recorded for Cc1c(C)c2c(c(C)c1O)CCC(C)(COc1ccc(CC3SC(=O)NC3=O)cc1)O2 (configuration not stated) ?
## Output 2.7

* * *

test: method code SF-GLC, from DOI: 10.1080/00032718608066246; settings: pH 7.0
measurementLabel: logD
Quick one: just the number, no unit, thanks!

## Input May I ask what logD has been recorded for "c1ccc2nc3ccccc3cc2c1" ?
## Output 3.32

* * *

I'd be grateful if you could share measured logD for these entries.
test: method code SF-AS, from DOI: 10.2307/3574491, PMID: 940937; conditions: pH 7.4
Quick one: just the number, no unit, thanks!

## Input May I ask what logD has been recorded for "O=[N+]([O-])c1nccn1CCO" ?
## Output -0.51

## Input May I ask what logD has been recorded for "Cn1c(C=O)cnc1[N+](=O)[O-]" ?
## Output -0.1

## Input May I ask what logD has been recorded for "CCOC(=O)Cn1c(CC)cnc1[N+](=O)[O-]" ?
## Output 0

## Input May I ask what logD has been recorded for COCC(O)Cn1c([N+](=O)[O-])cnc1C (stereo not given) ?
## Output 0.04

## Input May I ask what logD has been recorded for "Cc1cnc([N+](=O)[O-])n1CCO" ?
## Output 0.18

* * *

test: method code SF-AS, from DOI: 10.1023/a:1021720128725
I'd be grateful if you could share measured logP for these entries.
Quick one: just the number, no unit, thanks!

## Input May I ask what logP has been recorded for "Nc1nc2c(nc(Br)n2COCCO)c(=O)[nH]1" ?
## Output -0.26

## Input May I ask what logP has been recorded for "COc1ccc(-c2cn3c(=O)c4ncn(COCCO)c4nc3[nH]2)cc1" ?
## Output 0.39

* * *

assay: method code SF-RC,AS, from DOI: 10.1016/s0022-3565(25)22658-1, PMID: 3367302; conditions: pH 7.4
measurementLabel: logD
Quick one: just the number, no unit, thanks!

## Input May I ask what logD has been recorded for "[N-]=[N+]=N[C@H]1C[C@H](n2ccc(=O)[nH]c2=O)O[C@@H]1CO" ?
## Output -0.37

* * *

measurementLabel: logP
Quick one: just the number, no unit, thanks!

## Input May I ask what logP has been recorded for "Nc1c(Cl)cc(Cl)cc1Cl" ?
## Output 3.42

* * *

measurementLabel: logP
Quick one: just the number, no unit, thanks!

## Input May I ask what logP has been recorded for "CC(C)(C)c1cccc(C(C)(C)C)c1O" ?
## Output 4.92
